# ASSAY DETAILS: Primary qHTS for inhibitors of nuclear receptor binding SET domain protein 2 (NSD2) in an isogenic RCH-ACV NSD2 p.E1099K mutant (9B) (AID 1645876); further: nearly all actives have a fitted effect of over 70% in size; further: potency means the concentration at half of the fitted maximal effect
# CONDITION SET: RCH-ACV (leukaemia line) NSD2 E1099K (9B) viability, CellTiter-Glo, 72 h; series mostly up to 44.9 µM
Inconclusive results are not listed. Activity calls are given as the source filed them. The call rests on the fitted dose curve; in most records, active means well fitted inhibition curve with a large enough effect; inconclusive means small, poorly fitted or top-dose-only effect; inactive means flat fitted curve, though single readings scatter.
VALUE KIND: Potency

In the examples that follow, each entry is paired with its recorded Potency.
| COMPOUND | Potency |
| --- | --- |
| CCO[C@@H]1OC(=O)C[C@@H]1NC(=O)[C@@H]1CCCN1C(=O)[C@@H](NC(=O)c1ccc(N)c(Cl)c1)C(C)(C)C | inactive |
| Cc1cc(Nc2ccc(NC(=O)c3ccc(Nc4ccnc5ccccc45)cc3)cc2)nc(N)n1 | 1.83 µM (active) |
| CN(C)c1ccc2c(c1)OC(N)=C(C#N)C2c1cccc(C(F)(F)F)c1 (stereo unspecified) | 0.817 µM (active) |
| CC1CC[C@]2(C(=O)O)CC[C@]3(C(=O)O)C(=CCC4[C@@]5(C)CC[C@H](O[C@@H]6O[C@H](CO)[C@@H](O)[C@H](O)[C@H]6O)C(C)(C)C5CC[C@]43C)C2C1C (stereo partly specified) | inactive |
| CC(C)(O)C1CCC(C)(C2CCC3(C)C4CCC5C(C)(C(=O)OC6OC(CO)C(O)C(O)C6O)C(O)CC(O)C56CC46CCC23C)O1 (stereo unspecified) | inactive |

// O=C(O)CC(=O)OC[C@H]1O[C@@H](Oc2ccc3c(c2)OC[C@H]2c4cc5c(cc4O[C@@H]32)OCO5)[C@H](O)[C@@H](O)[C@@H]1O : Potency value = inactive

// CC(NC(=O)C(O)C(C)C)C(=O)NC1C(=O)N(C)CCc2ccccc21 (stereo unspecified) : Potency value = inactive

// NC1CCC(Nc2cc(-c3cccc(NCc4cccc(F)c4)n3)c(Cl)cn2)CC1 (stereo unspecified) : Potency value = 0.0817 µM (active)

// Cc1cc(C)c(Nc2ccnc(Nc3ccc(C#N)cc3)n2)c(C)c1 : Potency value = 4.09 µM (active)

// COc1cc(O)c2c(c1)C1=CC(O)C(O)CC1(C)OC2=O (stereo unspecified) : Potency value = inactive

---

# System: PA-1
# ASSAY DETAILS: Primary qHTS to identify gynecologic anti-cancer compounds using libraries of approved drugs and bioactive compounds (AID 1345084); further: nearly all actives have a fitted effect of over 55% in size; further: potency means the concentration at half of the fitted maximal effect
# CONDITION SET: Gynecologic cancer cell panel viability, ATPlite luminescence, 48 h; series mostly up to 57.5 µM
Inconclusive results are not listed. The source made the active and inactive calls. Calls follow the shape of the dose curve; as a rule, active = well fitted cell-killing curve with a large enough effect; inconclusive = small, poorly fitted or top-dose-only effect, or effect the other way; inactive = flat fitted curve, though single readings scatter.
VALUE KIND: Potency

In the examples that follow, each entry is paired with its recorded Potency.
| MOLECULE | STUDY TARGET | Potency |
| --- | --- | --- |
| CC1COC(Nc2ccc3ncnc(Nc4ccc(OCc5nccs5)c(Cl)c4)c3c2)=N1 (stereo not drawn) | PA-1 | inactive |
| CC1=CC(=O)CC(C)(C)C1/C=C/C(C)O[C@@H]1O[C@H](CO)[C@@H](O)[C@H](O)[C@H]1O[C@@H]1OC[C@](O)(CO)[C@H]1O (stereo partly drawn) | PA-1 | inactive |
| Cc1c2cc(c(C(=O)O)c1C)OC1OC(C(O)C(O)C1O)C(O)C(O)C1OC(O2)C(O)C(O)C1O (stereo not drawn) | PA-1 | inactive |
| COC(=O)N(C)c1c(N)nc(-c2nn(Cc3ccccc3F)c3ncccc23)nc1N | PA-1 | inactive |
| CCNCc1nc2c(N)nc3ccccc3c2n1CC(C)(C)O | PA-1 | inactive |
| COc1cc(Br)c(S(=O)(=O)Nc2ccc(C(F)(F)F)c(O[C@@H]3CCN(C)C3)c2)cc1OC | PA-1 | inactive |

// Cc1c(C(=O)Nc2ccc(N3CC(C)OC(C)C3)nc2)cccc1-c1ccc(OC(F)(F)F)cc1 (stereo not drawn) : Potency value = inactive

// FC(F)(F)c1ccc(Nc2nc(-c3c(C(F)(F)F)nc4ccccn34)cs2)cc1 : Potency value = 1.26 µM (active)

// CC(C)C(CO)Nc1nc(Nc2cc(N)cc(Cl)c2)c2ncn(C(C)C)c2n1 (stereo not drawn) : Potency value = 14.1 µM (active)

// CCCNc1ccc2ncc(-c3ccc4[nH]ncc4c3)n2n1 : Potency value = 2.82 µM (active)
